# Test system: VDR homodimer (NR concentration 270 nM)
# Procedure Summary: PBM binding z-score (relative to random genomic background probes); higher = stronger binding; sequences stand for … in GC…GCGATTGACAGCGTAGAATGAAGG
Reported PBM binding z-score values follow for various sequences
A bare number is all that is needed in reply.

| Input Sequence | PBM binding z-score |
| --- | --- |
| ATCGAAACGTCGTGAGGTGAGTATACAGAAAGGC | -0.417 |

The sequence "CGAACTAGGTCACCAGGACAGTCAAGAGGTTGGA" , when measured on VDR homodimer (NR concentration 270 nM), yielded PBM binding z-score of 0.612

The sequence "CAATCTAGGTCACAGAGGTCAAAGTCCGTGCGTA" , when measured on VDR homodimer (NR concentration 270 nM), yielded PBM binding z-score of 7.51

The sequence "CCGAGTAGGTTACGAGGGGGCATTAAGTGCGAAT" , when measured on VDR homodimer (NR concentration 270 nM), yielded PBM binding z-score of 3.56

The sequence "CTATGTAGATTAAGGGGGTCATTCAGTTTGAAAG" , when measured on VDR homodimer (NR concentration 270 nM), yielded PBM binding z-score of 5.58

* * *

# System: PPARg:RXRa 30nM:10nM, anti-RXR (NR concentration 30 nM, RXRa partner concentration 10 nM)
# Procedure Summary: PBM binding z-score (relative to random genomic background probes); higher = stronger binding; sequences stand for … in GC…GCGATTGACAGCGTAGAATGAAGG
Assign class by PBM binding z-score: not lower than 2 means True; lower than 2 means False.

Would you please look over these solved cases?
| Input Sequence | Assigned Label |
| --- | --- |
| TCGAGTAGGTTATGGGGGCATTCAGGGATGAAGA | True |
| ACTAGTAGGCCAAGGGTCACTCAAGATTAGTCCG | True |
| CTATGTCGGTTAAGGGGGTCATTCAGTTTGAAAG | True |

Item "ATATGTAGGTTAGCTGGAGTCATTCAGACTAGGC" with PBM binding z-score of 2 or above? False

Item "ACTTACGGGTCAACGAAGTTATAGCACGCGTATA" with PBM binding z-score of 2 or above? False

Item "TGGAGTAGGTTACGGGGGCATTCAGGGATGAAGA" with PBM binding z-score of 2 or above? True

Item "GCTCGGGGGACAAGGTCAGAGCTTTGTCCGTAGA" with PBM binding z-score of 2 or above? False

Item "CGAACTGGGTCACCAGGACAGTGAAGAGGTTGGA" with PBM binding z-score of 2 or above? True

* * *

# System: FXR:RXRa (NR concentration 270 nM, RXRa partner concentration 90 nM)
# Procedure Summary: PBM binding z-score (relative to random genomic background probes); higher = stronger binding; sequences stand for … in GC…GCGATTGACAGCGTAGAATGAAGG
Assign class by PBM binding z-score: not lower than 3 means satisfied; lower than 3 means not satisfied.

| Input Sequence | Assigned Label |
| --- | --- |
| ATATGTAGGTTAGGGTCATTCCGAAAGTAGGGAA | satisfied |
| ATATGTTGGTTAGGGTCATTCAGAAAGTAGGGAA | satisfied |

Item "TCTTGTAGATCAAAGGTCAAGAAAGCCGAAGCCT" with PBM binding z-score of 3 or above? satisfied

Item "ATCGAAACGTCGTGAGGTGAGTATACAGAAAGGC" with PBM binding z-score of 3 or above? not satisfied

Item "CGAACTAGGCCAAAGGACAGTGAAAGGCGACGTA" with PBM binding z-score of 3 or above? not satisfied

Item "CTATGTAGGATAAGGGGGTCATTCAGTTTGAAAG" with PBM binding z-score of 3 or above? satisfied

Item "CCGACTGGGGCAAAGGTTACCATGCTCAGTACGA" with PBM binding z-score of 3 or above? not satisfied

Item "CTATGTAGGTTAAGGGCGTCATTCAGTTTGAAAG" with PBM binding z-score of 3 or above? not satisfied

* * *

# System: RARa homodimer (NR concentration 270 nM)
# Procedure Summary: PBM binding z-score (relative to random genomic background probes); higher = stronger binding; sequences stand for … in GC…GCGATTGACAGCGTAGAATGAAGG
Measured Attribute: PBM binding z-score
A bare number is all that is needed in reply.

Worked cases, answers included:
| Input Sequence | PBM binding z-score |
| --- | --- |
| CAAACTAGGTCACGAAAGGTCAAATTCGAATGAC | 2.58 |
| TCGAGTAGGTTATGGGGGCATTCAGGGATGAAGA | 0.33 |
| TTACCAAGGTGAAGGTCGTGGATCCCTCTGTAGA | -0.307 |
| ATAGGTAGGTTAGGGTCATTCAGAAAGTAGGGAA | 3.2 |
| CGAACTAGGTCAGAGGACAGTGAAAGGCGACGTA | -0.0193 |
| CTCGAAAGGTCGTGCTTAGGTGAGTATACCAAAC | 0.262 |
| AGTCAAAGTTCTTCTAGGTAACGTAAGATATGCT | 0.636 |
| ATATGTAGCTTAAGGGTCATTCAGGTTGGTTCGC | 0.894 |
| CTCGAAAGGTCGTGGTCAGGTGAGTATACCAAAC | 0.777 |
| CGAACTAGGTCACCAGCACAGTGAAGAGGTTGGA | 0.262 |

// switching to the query sequence
The value of PBM binding z-score measured for the sequence "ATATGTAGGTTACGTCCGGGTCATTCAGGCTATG" turned out to be 0.587

* * *

# Test system: PXR:RXRa (NR concentration 270 nM, RXRa partner concentration 90 nM)
# Procedure Summary: PBM binding z-score (relative to random genomic background probes); higher = stronger binding; sequences stand for … in GC…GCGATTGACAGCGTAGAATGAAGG
Measured Attribute: PBM binding z-score
A bare number is all that is needed in reply.

Worked cases, answers included:
| Input Sequence | Measured Number |
| --- | --- |
| TGAATGACGTTAAAGATCAGGGAACGTGGCGTCG | -0.444 |
| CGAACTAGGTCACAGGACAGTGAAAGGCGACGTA | 1.38 |
| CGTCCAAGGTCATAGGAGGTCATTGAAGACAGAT | 7.17 |
| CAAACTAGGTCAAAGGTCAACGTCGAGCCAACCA | 7.11 |
| CGTCAAAGTTCAACTAAGGTAACTTAAAGCACGC | 5.71 |

// switching to the query sequence
The sequence "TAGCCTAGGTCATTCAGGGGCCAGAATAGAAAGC" , when measured on PXR:RXRa (NR concentration 270 nM, RXRa partner concentration 90 nM), yielded PBM binding z-score of 2.48

* * *

# Test system: PPARg homodimer (NR concentration 180 nM)
# Procedure Summary: PBM binding z-score (relative to random genomic background probes); higher = stronger binding; sequences stand for … in GC…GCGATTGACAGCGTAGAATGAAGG
Assign class by PBM binding z-score: not lower than 3 means true (1); lower than 3 means false (0).

| Input Sequence | Assigned Label |
| --- | --- |
| TCTAGTAGGTCACGGAGGTCACACACGACGGGTA | true (1) |
| CGAACTAGGACACCAGGACAGTGAAGAGGTTGGA | false (0) |
| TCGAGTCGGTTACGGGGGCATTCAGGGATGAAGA | false (0) |
| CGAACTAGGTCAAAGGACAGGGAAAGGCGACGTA | false (0) |
| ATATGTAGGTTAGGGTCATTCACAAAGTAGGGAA | false (0) |

Query sequence follows.
Item "CGAACTAGGTCACCAGGACAGTGTAGAGGTTGGA" with PBM binding z-score of 3 or above? false (0)

* * *

# System: PPARg homodimer (NR concentration 180 nM)
# Procedure Summary: PBM binding z-score (relative to random genomic background probes); higher = stronger binding; sequences stand for … in GC…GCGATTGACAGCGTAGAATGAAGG
We'd kindly ask you to apply these PBM binding z-score classes: bottom end = under 0.6, midrange = from 0.6 up to 2, top end = 2 and over

| Input Sequence | Assigned Label |
| --- | --- |
| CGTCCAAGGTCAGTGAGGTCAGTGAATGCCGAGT | top end |
| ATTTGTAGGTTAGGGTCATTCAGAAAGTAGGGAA | top end |
| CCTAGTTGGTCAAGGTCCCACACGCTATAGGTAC | midrange |
| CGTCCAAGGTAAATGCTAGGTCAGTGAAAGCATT | bottom end |
| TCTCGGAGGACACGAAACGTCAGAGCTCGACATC | bottom end |
| CCTACTGGGCCACGAAAGGTCCTTGATTCAGTGA | bottom end |
| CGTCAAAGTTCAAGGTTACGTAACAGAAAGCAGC | top end |
| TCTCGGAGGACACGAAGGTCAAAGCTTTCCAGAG | midrange |
| CCTACTGGGCCAAGGTCATAGATCAGTCAAAGCA | top end |
| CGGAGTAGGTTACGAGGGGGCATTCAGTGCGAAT | midrange |

Just checking, what class would you give "TCTCGGAGGACACGAAAGGTCAGTGCTCGACATC" here? top end

Just checking, what class would you give "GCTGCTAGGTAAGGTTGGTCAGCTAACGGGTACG" here? bottom end

Just checking, what class would you give "ATATGTAGGTTAGAGTCATTCAGAAAGTAGGGAA" here? midrange

Just checking, what class would you give "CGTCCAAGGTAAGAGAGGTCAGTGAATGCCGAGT" here? midrange
